# Test system: RPMI-8226 leukemia
# RUN DESCRIPTION: NCI tumour cell line growth inhibition, 48 h
TGI by entry:

- MOLECULE: "COC(=O)[C@@H]1CN(C(=O)CCc2ccccc2)C(=O)N1C(=O)OCc1ccccc1"
  TGI: "> 100 µM"
- MOLECULE: "CN(C)CCCN1c2ccccc2CCc2ccc(Cl)cc21"
  TGI: "8.26 µM"
- MOLECULE: "Cc1ccc(-c2nc3ccc(Cl)cc3[nH]2)cc1"
  TGI: "> 100 µM"
- MOLECULE: "NNC(=O)c1ccc(-n2nnc(C(=O)NN)c2C(=O)NN)cc1"
  TGI: "> 100 µM"
- MOLECULE: "CCC1C(c2cc(OC)c(OC)c(OC)c2)c2cc3c(cc2OC1N1CCCC1)OCO3 (stereo unspecified)"
  TGI: "26.2 µM"
- MOLECULE: "COc1cc2c(c(OC)c1OC)C(=O)[C@H](O)[C@H]2NC(N)=O"
  TGI: "> 100 µM"
- MOLECULE: "C=CC(=O)N1CCN(c2ccc3cccc(NC(=O)c4cnc(C)cn4)c3n2)CC1"
  TGI: "6.52 µM"
- MOLECULE: "CC(=O)OC1CCn2nnc(CO[Si](C)(C)C(C)(C)C)c21 (stereo unspecified)"
  TGI: "> 100 µM"
- MOLECULE: "CCO[C@]12C[C@H](OC)[C@@]3(O)CC(C1[C@H]3OCc1ccccc1)C13C4C2[C@H](OC)C1[C@](COC)(CN4CC)[C@H](O)C[C@@H]3OC (stereo partly specified)"
  TGI: "> 100 µM"
- MOLECULE: "Cn1cnc2nc(Cl)nc(NC(C)(C)C(C)(C)O)c21"
  TGI: "> 100 µM"
- MOLECULE: "COc1cc(OC)c(OC)cc1/C=N/N=C(\\N)NO"
  TGI: "> 100 µM"
- MOLECULE: "COC(=O)C1C(OC(=O)c2ccccc2)CC2CCC1N2C(N)=O (stereo unspecified)"
  TGI: "> 100 µM"
- MOLECULE: "C=CCOC1OC(CO[Si](C)(C)C(C)(C)C)C(OCc2ccccc2)C(OCc2ccccc2)C1OCc1ccccc1 (stereo unspecified)"
  TGI: "> 100 µM"
- MOLECULE: "Cc1ccc(C(=O)Nc2cccc(C(F)(F)F)c2)cc1Nc1nc(-c2cccnc2)nc2c1cnn2C"
  TGI: "6.04 µM"
- MOLECULE: "CC(=O)OCC(OC(C)=O)C(OC(C)=O)C(C=NN(C(C)=O)S(=O)(=O)c1ccc(/C=C2\\NC(=O)NC2=O)cc1)OC(C)=O (stereo unspecified)"
  TGI: "> 100 µM"
- MOLECULE: "CC(C)(C)c1ccc(OCCCCCCN2CCNCC2)cc1"
  TGI: "6.46 µM"
- MOLECULE: "CCOC(=O)C1=C(O)C(=O)c2ccsc2C1=O"
  TGI: "> 100 µM"
- MOLECULE: "COc1cc2c(cc1OCCCCOc1cc3c(cc1OC)C(=O)N1CCC[C@H]1CN3)N=C[C@@H]1CCCN1C2=O"
  TGI: "4.84 µM"
- MOLECULE: "NC(=O)NN=C(CS)CS"
  TGI: "> 100 µM"
- MOLECULE: "CN1CCCCC1CCN1CCCCC1 (stereo unspecified)"
  TGI: "> 100 µM"
- MOLECULE: "Cc1cc(N(CCC#N)CCC#N)ccc1/C=C/C(=O)Nc1cccc(Cl)c1"
  TGI: "> 100 µM"
